# System: HCT-15
# ASSAY PROCEDURE: Antiproliferative activity against human HCT15 cells assessed as inhibition of cell growth measured after 48 hrs by SRB assay
# Type: functional
# EXPERIMENTAL CONDITIONS: HCT-15, 48 h
I'd be grateful if you could share measured GI50 for these entries.

Prompt: // lookup GI50 | system=HCT-15 | key= O=C1CC(c2ccccc2)Cc2nc3ccc(Cl)cc3cc21 (stereo not given)
Response: 588 nM

Prompt: // lookup GI50 | system=HCT-15 | key= COc1ccc2nc3c(cc2c1)C(=O)CC(c1ccccc1)C3 (stereo not given)
Response: 2680 nM

Prompt: // lookup GI50 | system=HCT-15 | key= COc1ccc2nc3c(cc2c1)C(=O)CC(C(F)(F)F)C3 (stereo not given)
Response: 1370 nM

Prompt: // lookup GI50 | system=HCT-15 | key= O=C1CC(c2ccccc2)Cc2nc3c(Br)cc(Br)cc3cc21 (stereo not given)
Response: 312 nM

Prompt: // lookup GI50 | system=HCT-15 | key= O=C1CC(c2ccccc2)Cc2nc3ccc(Br)cc3cc21 (stereo not given)
Response: 528 nM
